target: caspase-1 (Homo sapiens); assay: Screening on caspases inhibiting activity (recombinant enzyme, fluorogenic AMC substrate); settings: Reversible Inhibitor
Sequence (P29466 120-297 limits assumed): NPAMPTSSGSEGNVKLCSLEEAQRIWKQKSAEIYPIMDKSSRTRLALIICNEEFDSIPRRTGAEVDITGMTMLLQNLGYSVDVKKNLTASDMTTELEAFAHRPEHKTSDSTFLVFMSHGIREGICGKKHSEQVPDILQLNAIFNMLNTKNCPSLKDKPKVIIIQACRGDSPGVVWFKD
Sequence (P29466 317-404 limits assumed): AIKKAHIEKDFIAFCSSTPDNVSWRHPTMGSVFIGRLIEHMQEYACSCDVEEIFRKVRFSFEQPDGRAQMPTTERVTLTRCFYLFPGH
# Ki per entry
parameter: Ki (nM)

molecule: CC(C)[C@H](NC(=O)c1ccc2ccccc2n1)C1=NOC(Cc2ccccc2)(C(=O)N[C@@H](CC(=O)O)C(=O)COc2ccccc2)C1 (stereo partly drawn) [Compound 43mp]
unit text: nM
reported: 4

molecule: CC(C)[C@H](NC(=O)CCC(=O)O)C1=NOC(C)(C(=O)N[C@@H](CC(=O)O)C(=O)CN2CCCCC2)C1 (stereo partly drawn) [Compound 77]
unit text: nM
reported: 28900

molecule: CC(C)[C@H](NC(=O)c1ccc2ccccc2c1)C1=NOC(COc2ccccc2)(C(=O)N[C@@H](CC(=O)O)C(=O)COc2ccc3ccccc3c2)C1 (stereo partly drawn) [Compound 25mp]
unit text: nM
reported: 0.0721
